Each entry below carries its reported inhibition.
target: GABA-A receptor; anion channel (Rattus norvegicus) (UniProt O09028+P15431+P18506+P18508+P19969+P20236+P23574+P23576+P28471+P28473+P30191+P62813+P63079+P63138+Q91ZM7+Q9ES14); assay: The percent inhibition of [3H]diazepam binding to the benzodiazepine receptor of rat brain elicited by 100 uM of compound

// query inhibition value for entry CN(C)c1ncnc2c1ncn2Cc1cccc(Cl)c1
59%

From here, focus on the item given below.
// query inhibition value for entry CN(C)c1ncnc2c1ncn2Cc1ccc(C#N)cc1
26%

----------
target: GABA-A receptor; anion channel (Rattus norvegicus) (UniProt O09028+P15431+P18506+P18508+P19969+P20236+P23574+P23576+P28471+P28473+P30191+P62813+P63079+P63138+Q91ZM7+Q9ES14); assay: The percent inhibition of [3H]diazepam binding to the benzodiazepine receptor of rat brain elicited by 100 uM of compound
Answer 0.0 if inhibition is under 20%, and 1.0 if it is 20% or more.

Worked cases, answers included:
Could you tell me if the measured inhibition of Cc1cccc(Cn2cnc3c(N(C)C)ncnc32)c1 reaches 20% or more?
1.0

Could you tell me if the measured inhibition of CN(C)c1ncnc2c1ncn2C reaches 20% or more?
0.0

Could you tell me if the measured inhibition of CN(C)c1ncnc2c1ncn2Cc1ccc(F)cc1 reaches 20% or more?
1.0

Further cases:
Could you tell me if the measured inhibition of CCN(CC)c1ncnc2c1ncn2Cc1ccccc1 reaches 20% or more?
1.0

Could you tell me if the measured inhibition of Cc1ccc(Cn2cnc3c(N(C)C)ncnc32)cc1 reaches 20% or more?
1.0

Could you tell me if the measured inhibition of CN(C)c1ncnc2c1ncn2Cc1ccc(Cl)cc1 reaches 20% or more?
1.0
